- TGT: D2 receptor (striatum of rat) (Rattus norvegicus)
- Construct: The striatum of rats were excised, homogenized
- Sequence (P61169 whole entry): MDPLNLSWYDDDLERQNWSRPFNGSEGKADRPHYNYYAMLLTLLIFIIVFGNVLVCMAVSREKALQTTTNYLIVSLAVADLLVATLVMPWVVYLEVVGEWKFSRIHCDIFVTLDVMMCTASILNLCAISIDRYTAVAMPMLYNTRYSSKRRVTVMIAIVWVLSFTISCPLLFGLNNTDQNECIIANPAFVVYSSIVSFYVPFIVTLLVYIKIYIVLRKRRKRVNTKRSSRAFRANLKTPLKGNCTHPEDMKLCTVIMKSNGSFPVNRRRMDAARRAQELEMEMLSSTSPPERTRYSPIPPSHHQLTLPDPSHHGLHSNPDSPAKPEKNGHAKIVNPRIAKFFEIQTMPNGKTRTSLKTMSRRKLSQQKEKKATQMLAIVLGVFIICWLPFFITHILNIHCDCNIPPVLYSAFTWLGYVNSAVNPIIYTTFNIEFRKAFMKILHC
- ASSAY: specific binding of D2 receptors in the striatum of rat
- RUN_CONDITIONS: displacement of 3H-Spiperone 0.2 nM, rat striatum synaptosome fraction, 37 degree centigrade, 15 minutes
Where a name gives a salt, the structure may show the parent alone.
VALUE_TYPE: IC50 (µM)
Please give a number only; it is taken to be in µM.

Previously resolved entries follow.
{"columns": ["MOLECULE", "TGT", "QUANTITATIVE_RESULT"],
 "data": [
  ["Oc1ccc([C@@H]2CNC[C@H]2c2cccc3ccsc23)cc1O (relative stereo) [Compound G, hydrobromide]", "D2 receptor (striatum of rat) (Rattus norvegicus)", 6],
  ["Oc1ccc([C@@H]2CNC[C@H]2c2cccc(O)c2Cl)cc1O (relative stereo) [Compound D, hydrobromide]", "D2 receptor (striatum of rat) (Rattus norvegicus)", 5.3],
  ["Oc1ccc([C@@H]2CNC[C@H]2c2ccccc2)cc1O (relative stereo) [Compound A, hydrobromide]", "D2 receptor (striatum of rat) (Rattus norvegicus)", 88],
  ["Oc1ccc([C@@H]2CNC[C@H]2Cc2cc(F)cc(F)c2O)cc1O (relative stereo)", "D2 receptor (striatum of rat) (Rattus norvegicus)", 2]
]}

get_value(item= Oc1ccc([C@@H]2CNC[C@H]2Cc2cc(Cl)ccc2O)cc1O (relative stereo) , readout=IC50) returns 0.3
